meta.source: ChEMBL document CHEMBL4477204

# Test system: Transient receptor potential cation channel subfamily A member 1 (Rattus norvegicus)
# Sequence (Q6RI86 whole entry): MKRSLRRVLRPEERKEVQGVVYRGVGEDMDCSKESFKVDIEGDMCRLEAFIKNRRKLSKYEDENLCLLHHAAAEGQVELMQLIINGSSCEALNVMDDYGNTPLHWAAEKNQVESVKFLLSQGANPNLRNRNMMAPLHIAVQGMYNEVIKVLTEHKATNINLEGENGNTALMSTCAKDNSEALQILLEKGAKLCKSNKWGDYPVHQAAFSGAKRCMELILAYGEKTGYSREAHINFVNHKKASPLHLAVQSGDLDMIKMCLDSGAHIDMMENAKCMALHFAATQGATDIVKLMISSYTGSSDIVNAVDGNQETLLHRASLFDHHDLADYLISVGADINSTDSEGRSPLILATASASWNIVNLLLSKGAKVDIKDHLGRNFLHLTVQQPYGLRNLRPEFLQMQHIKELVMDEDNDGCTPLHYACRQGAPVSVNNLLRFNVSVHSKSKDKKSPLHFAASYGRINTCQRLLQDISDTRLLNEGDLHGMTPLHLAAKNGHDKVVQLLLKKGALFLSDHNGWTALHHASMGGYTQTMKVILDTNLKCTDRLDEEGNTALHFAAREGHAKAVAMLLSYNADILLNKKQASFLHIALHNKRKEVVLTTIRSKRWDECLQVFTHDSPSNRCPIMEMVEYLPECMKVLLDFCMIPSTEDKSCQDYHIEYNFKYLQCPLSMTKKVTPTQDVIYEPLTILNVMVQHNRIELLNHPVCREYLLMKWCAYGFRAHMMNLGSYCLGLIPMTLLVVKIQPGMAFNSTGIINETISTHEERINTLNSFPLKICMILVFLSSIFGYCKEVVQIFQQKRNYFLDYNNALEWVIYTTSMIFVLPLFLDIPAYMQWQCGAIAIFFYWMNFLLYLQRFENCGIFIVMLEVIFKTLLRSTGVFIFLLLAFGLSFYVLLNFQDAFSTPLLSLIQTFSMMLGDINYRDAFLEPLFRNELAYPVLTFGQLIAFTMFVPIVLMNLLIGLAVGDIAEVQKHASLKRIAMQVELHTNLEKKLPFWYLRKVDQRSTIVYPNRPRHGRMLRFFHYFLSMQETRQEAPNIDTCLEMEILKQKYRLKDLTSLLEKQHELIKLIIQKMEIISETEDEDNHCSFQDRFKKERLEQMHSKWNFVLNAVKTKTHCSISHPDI
# Assay notes: Antagonist activity at recombinant rat TRPA1 expressed in HEK293 cells assessed as inhibition of AITC-induced intracellular calcium accumulation preincubated for 5 mins followed by AITC addition by Fluo-4-AM probe-based spectrofluorimetric assay

Compound	Test system	IC50 (µM)
COc1cc2c(cc1OC)[C@H](c1ccccc1)N(C(=O)N1CCc3cc(OC)c(OC)cc3[C@@H]1c1ccccc1)CC2 (racemic)	Transient receptor potential cation channel subfamily A member 1 (Rattus norvegicus)	10
COc1cc2c(cc1OC)[C@H](c1ccc(F)cc1)N(C(=O)N1CCc3cc(OC)c(OC)cc3[C@@H]1c1ccc(F)cc1)CC2 (racemic)	Transient receptor potential cation channel subfamily A member 1 (Rattus norvegicus)	16.4
COc1cc2c(cc1OC)[C@H](c1ccc(Cl)cc1)N(C(=O)N1CCc3cc(OC)c(OC)cc3[C@@H]1c1ccc(Cl)cc1)CC2 (racemic)	Transient receptor potential cation channel subfamily A member 1 (Rattus norvegicus)	23.9
COc1cc(/C=C2\NC(=O)[C@@H]3Cc4c(OC)c(C)c(OC)c(OC)c4[C@@H](c4ccccc4)N3C2=O)c(OC)c(C)c1OC	Transient receptor potential cation channel subfamily A member 1 (Rattus norvegicus)	14.2

----------
# Assay notes: in vitro
# Condition parameters: C57BL/6, mouse, liver microsomes
# Description: Intrinsic clearance in C57BL/6 mouse liver microsomes at 3 uM measured over 60 mins by HPLC analysis
Result type: CLint scaled at 1 h, 3 µM (mL/min/kg)

Molecule	Meas value
COc1cc2c(cc1OC)[C@H](c1ccc(C(F)(F)F)cc1)N(C(=O)N1CCc3cc(OC)c(OC)cc3[C@@H]1c1ccc(C(F)(F)F)cc1)CC2 (racemic)	10.1
COc1cc2c(cc1OC)[C@H](c1ccc(F)cc1)N(C(=O)N1CCc3cc(OC)c(OC)cc3[C@@H]1c1ccc(F)cc1)CC2 (racemic)	75.2
COc1ccc(CCNC(=O)N2CCc3cc(OC)c(OC)cc3C2c2ccccc2)cc1OC (stereo unspecified)	39.6
COc1cc2c(cc1OC)[C@H](c1ccccc1Cl)N(C(=O)N1CCc3cc(OC)c(OC)cc3[C@@H]1c1ccccc1Cl)CC2 (racemic)	52.9
COc1cc2c(cc1OC)[C@H](c1ccc(Br)cc1)N(C(=O)N1CCc3cc(OC)c(OC)cc3[C@@H]1c1ccc(Br)cc1)CC2 (racemic)	19.1
COc1cc(/C=C2\NC(=O)[C@@H]3Cc4c(OC)c(C)c(OC)c(OC)c4[C@@H](c4ccccc4)N3C2=O)c(OC)c(C)c1OC	15.6

----------
Measured IC50, listed per entry for reference.
# Test system: Transient receptor potential cation channel subfamily M member 8 (Rattus norvegicus, UniProt Q8R455)
# Sequence (Q8R455 whole entry): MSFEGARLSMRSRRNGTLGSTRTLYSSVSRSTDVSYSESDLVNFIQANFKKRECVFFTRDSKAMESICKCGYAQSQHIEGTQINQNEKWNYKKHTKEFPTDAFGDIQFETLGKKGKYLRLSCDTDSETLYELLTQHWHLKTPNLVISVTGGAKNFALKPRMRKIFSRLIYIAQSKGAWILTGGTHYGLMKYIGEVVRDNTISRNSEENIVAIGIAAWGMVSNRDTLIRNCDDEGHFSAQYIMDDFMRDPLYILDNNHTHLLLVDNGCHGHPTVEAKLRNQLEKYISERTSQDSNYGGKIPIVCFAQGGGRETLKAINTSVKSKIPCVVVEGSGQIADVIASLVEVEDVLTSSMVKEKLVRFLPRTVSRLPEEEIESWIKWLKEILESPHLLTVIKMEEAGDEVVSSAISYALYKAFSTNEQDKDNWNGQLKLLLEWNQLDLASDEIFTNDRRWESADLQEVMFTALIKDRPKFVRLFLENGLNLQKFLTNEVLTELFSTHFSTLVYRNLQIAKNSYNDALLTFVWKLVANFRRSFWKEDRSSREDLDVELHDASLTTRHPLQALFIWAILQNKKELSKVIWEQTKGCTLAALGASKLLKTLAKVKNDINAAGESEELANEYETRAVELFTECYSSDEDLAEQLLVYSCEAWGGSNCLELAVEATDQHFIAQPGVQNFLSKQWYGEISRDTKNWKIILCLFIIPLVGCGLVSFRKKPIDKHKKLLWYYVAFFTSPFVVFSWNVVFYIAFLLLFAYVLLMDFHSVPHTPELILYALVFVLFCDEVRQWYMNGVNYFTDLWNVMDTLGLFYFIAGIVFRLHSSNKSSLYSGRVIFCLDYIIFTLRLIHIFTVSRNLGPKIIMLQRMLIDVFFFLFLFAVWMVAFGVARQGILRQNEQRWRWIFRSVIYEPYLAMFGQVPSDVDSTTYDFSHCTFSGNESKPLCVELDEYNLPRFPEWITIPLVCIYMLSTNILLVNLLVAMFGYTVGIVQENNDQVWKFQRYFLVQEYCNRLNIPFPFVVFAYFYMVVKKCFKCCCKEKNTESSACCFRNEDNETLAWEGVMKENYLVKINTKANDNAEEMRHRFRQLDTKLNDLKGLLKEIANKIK
# Assay notes: Antagonist activity at recombinant rat TRPM8 expressed in HEK293 cells assessed as inhibition of icilin-induced intracellular calcium accumulation preincubated for 5 mins followed by icilin addition by Fluo-4-AM probe-based spectrofluorimetric assay

Molecule	IC50
COc1ccc(CCNC(=O)N2CCc3cc(OC)c(OC)cc3C2c2ccc(Cl)cc2)cc1OC (stereo not drawn)	31.7 µM
COc1cc(C[C@@H]2NC(=O)[C@@H]3Cc4c(OC)c(C)c(OC)c(OC)c4[C@H](/C=C/c4ccccc4)N3C2=O)c(OC)c(C)c1OC (racemic)	3.2 µM
COc1cc2c(cc1OC)[C@H](c1ccc(Oc3ccc([N+](=O)[O-])cc3)cc1)N(C(=O)N1CCc3cc(OC)c(OC)cc3[C@@H]1c1ccc(Oc3ccc([N+](=O)[O-])cc3)cc1)CC2 (racemic)	> 50 µM
